System: CW-2 (Colorectal Carcinoma);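 also: after 72 h of two-drug dosing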
Assay: Bliss excess, mean over the matrix (fraction); higher = more synergy
Each item that follows carries a reported Bliss excess.
// response body must contain only the number

These solved cases illustrate the format of a correct answer.
# compound, Bliss excess
measured = [
    ("CC1(C)CCC(CN2CCN(c3ccc(C(=O)NS(=O)(=O)c4ccc(NCC5CCOCC5)c([N+](=O)[O-])c4)c(Oc4cnc5[nH]ccc5c4)c3)CC2)=C(c2ccc(Cl)cc2)C1 [Venetoclax] + C[C@@H]1COCCN1C2=NC(=NC(=C2)C3(CC3)[S@](=N)(=O)C)C4=C5C=CNC5=NC=C4 [AZD6738] (first compound max 1 µM, 7x7, partner max 10 µM)", 0.0258),
    ("CN(CCO)CC[C@H](CSc1ccccc1)Nc1ccc(S(=O)(=O)NC(=O)c2ccc(N3CCC([C@@H](O)c4ccccc4-c4ccc(Cl)cc4)CC3)cc2)cc1S(=O)(=O)C(F)(F)F [AZD4320] + C1CN(CCC1(C(=O)N[C@@H](CCO)C2=CC=C(C=C2)Cl)N)C3=NC=NC4=C3C=CN4 [Capivasertib] (first compound max 1 µM, 7x7, partner max 3 µM)", -0.0284),
    ("COc1nnc2ccc(N3CCC(c4ccc(OCCN5CCN(C)C(=O)[C@H]5C)cc4)CC3)nn12 [AZD5153] + CC1(C)CCC(CN2CCN(c3ccc(C(=O)NS(=O)(=O)c4ccc(NCC5CCOCC5)c([N+](=O)[O-])c4)c(Oc4cnc5[nH]ccc5c4)c3)CC2)=C(c2ccc(Cl)cc2)C1 [Venetoclax] (first compound max 1 µM, 7x7, partner max 1 µM)", -0.0642),
    ("C=CCn1c(=O)c2cnc(Nc3ccc(N4CCN(C)CC4)cc3)nc2n1-c1cccc(C(C)(C)O)n1 [AZD1775] + O=C(c1cc(Cc2n[nH]c(=O)c3ccccc23)ccc1F)N1CCN(C(=O)C2CC2)CC1 [Olaparib] (first compound max 1 µM, partner max 10 µM)", 0.0127),
    ("Cc1c2c(nn1C)CSCc1cc(n(C)n1)CSc1cc(c3ccccc3c1)OCCCc1c(C(=O)O)n(C)c3c-2c(Cl)ccc13 [AZD5991] + CC1(C)CCC(CN2CCN(c3ccc(C(=O)NS(=O)(=O)c4ccc(NCC5CCOCC5)c([N+](=O)[O-])c4)c(Oc4cnc5[nH]ccc5c4)c3)CC2)=C(c2ccc(Cl)cc2)C1 [Venetoclax] (first compound max 1 µM, 7x7, partner max 1 µM)", 0.0005),
]

Form field: reported Bliss excess of COc1nnc2ccc(N3CCC(c4ccc(OCCN5CCN(C)C(=O)[C@H]5C)cc4)CC3)nn12 [AZD5153] + Cc1c2c(nn1C)CSCc1cc(n(C)n1)CSc1cc(c3ccccc3c1)OCCCc1c(C(=O)O)n(C)c3c-2c(Cl)ccc13 [AZD5991] (first compound max 1 µM, 7x7, partner max 1 µM) -0.0629

Form field: reported Bliss excess of C[C@@H](Oc1cc(-c2cnn(C3CCNCC3)c2)cnc1N)c1c(Cl)ccc(F)c1Cl [Crizotinib] + CC1=C(C(=CC=C1)Cl)NC(=O)C2=CN=C(S2)NC3=CC(=NC(=N3)C)N4CCN(CC4)CCO [Dasatinib] (first compound max 10 µM, 7x7, partner max 2 µM) -0.0315

Form field: reported Bliss excess of NC1(C(=O)N[C@@H](CCO)c2ccc(Cl)cc2)CCN(c2ncnc3[nH]ccc23)CC1 [Capivasertib] + Cn1cnc2c(F)c(Nc3ccc(Br)cc3Cl)c(C(=O)NOCCO)cc21 [Selumetinib] (first compound max 10 µM, 7x7, partner max 10 µM) -0.0035

Form field: reported Bliss excess of CN(CCO)CC[C@H](CSc1ccccc1)Nc1ccc(S(=O)(=O)NC(=O)c2ccc(N3CCC([C@@H](O)c4ccccc4-c4ccc(Cl)cc4)CC3)cc2)cc1S(=O)(=O)C(F)(F)F [AZD4320] + Cc1cc2ncnn2cc1Nc1ncc2c(n1)n(C1CCOCC1)c(=O)n2C [AZD7648] (first compound max 1 µM, 7x7, partner max 10 µM) -0.006

Form field: reported Bliss excess of C[C@@H](Nc1cc(F)cc(F)c1)c1cc(C(=O)N(C)C)cc2c(=O)cc(N3CCOCC3)oc12 [AZD8186] + C1CN(CCC1(C(=O)N[C@@H](CCO)C2=CC=C(C=C2)Cl)N)C3=NC=NC4=C3C=CN4 [AZD5363] (first compound max 10 µM, 7x7, partner max 10 µM) -0.0086

Form field: reported Bliss excess of COc1nnc2ccc(N3CCC(c4ccc(OCCN5CCN(C)C(=O)[C@H]5C)cc4)CC3)nn12 [AZD5153] + C[C@@H]1COCCN1C2=NC(=NC(=C2)C3(CC3)[S@](=N)(=O)C)C4=C5C=CNC5=NC=C4 [AZD6738] (first compound max 1 µM, 7x7, partner max 10 µM) 0.0277

Form field: reported Bliss excess of C[C@@H](c1ccc2nccn2c1)n1nnc2ncc(-c3cnn(C)c3)nc21 [Savolitinib] + Cc1c2c(nn1C)CSCc1cc(n(C)n1)CSc1cc(c3ccccc3c1)OCCCc1c(C(=O)O)n(C)c3c-2c(Cl)ccc13 [AZD5991] (first compound max 1 µM, 7x7, partner max 1 µM) -0.0263
